TARGET DESC: Wild-type yeast BC domain (Saccharomyces cerevisiae)
Construct: Residues 2-581 of yeast ACC were sub-cloned into the pET28a vector; made in house; host or cells: E. coli BL21(DE3) Rosetta
Sequence (Q00955 2-581): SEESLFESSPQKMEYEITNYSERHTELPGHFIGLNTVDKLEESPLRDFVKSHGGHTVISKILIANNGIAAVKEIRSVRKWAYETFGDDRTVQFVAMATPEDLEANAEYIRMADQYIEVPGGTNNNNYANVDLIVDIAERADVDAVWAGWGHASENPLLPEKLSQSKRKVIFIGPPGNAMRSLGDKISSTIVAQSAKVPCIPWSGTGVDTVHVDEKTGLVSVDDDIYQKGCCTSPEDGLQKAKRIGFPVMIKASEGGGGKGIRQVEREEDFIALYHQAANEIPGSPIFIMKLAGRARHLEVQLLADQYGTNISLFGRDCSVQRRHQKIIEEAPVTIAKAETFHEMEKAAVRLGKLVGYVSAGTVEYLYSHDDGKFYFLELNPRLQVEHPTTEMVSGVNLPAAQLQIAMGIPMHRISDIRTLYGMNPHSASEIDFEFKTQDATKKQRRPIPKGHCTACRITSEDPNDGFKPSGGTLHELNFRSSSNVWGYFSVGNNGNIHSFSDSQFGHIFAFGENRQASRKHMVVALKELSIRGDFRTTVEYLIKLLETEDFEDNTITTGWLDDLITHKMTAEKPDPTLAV
MEASUREMENT DESCRIPTION: fluorescence-based binding assay (Trp emission), wild-type
MEASUREMENT SETUP: 50 nM enzyme
PROPERTY MEASURED: Kd (nM)
All answers are understood in nM, so give the number only.

Given the compound CO[C@H]1CCCC[C@@H](c2ccccc2)OC(=O)[C@@H](C)[C@@]2(O)O[C@H]([C@@H](C)[C@H](O)[C@H]2OC)[C@@H](C)/C=C/[C@H]1OC , what is its reported Kd?
3.9

---

TARGET DESC: BC domain of human ACC2 (Homo sapiens)
Sequence (O00763 259-761 limits assumed): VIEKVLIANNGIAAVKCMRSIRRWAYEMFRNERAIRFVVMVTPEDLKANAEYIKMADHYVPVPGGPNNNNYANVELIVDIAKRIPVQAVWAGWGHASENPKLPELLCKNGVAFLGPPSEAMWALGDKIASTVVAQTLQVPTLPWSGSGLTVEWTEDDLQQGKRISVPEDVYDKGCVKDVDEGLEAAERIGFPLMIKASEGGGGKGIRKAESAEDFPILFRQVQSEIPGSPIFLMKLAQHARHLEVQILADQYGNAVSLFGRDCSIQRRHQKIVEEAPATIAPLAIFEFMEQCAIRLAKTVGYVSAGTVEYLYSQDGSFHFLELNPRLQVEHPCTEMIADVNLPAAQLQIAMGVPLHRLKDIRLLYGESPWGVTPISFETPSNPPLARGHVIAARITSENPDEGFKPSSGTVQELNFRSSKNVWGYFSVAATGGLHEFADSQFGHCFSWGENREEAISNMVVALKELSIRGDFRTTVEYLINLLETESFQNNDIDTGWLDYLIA
PROPERTY MEASURED: Kd

Can you look up Kd on BC domain of human ACC2 (Homo sapiens) for CO[C@H]1CCCC[C@@H](c2ccccc2)OC(=O)[C@@H](C)[C@@]2(O)O[C@H]([C@@H](C)[C@H](O)[C@H]2OC)[C@@H](C)/C=C/[C@H]1OC [soraphen A] ?
~1 nM

---

TARGET DESC: I69E mutant yeast BC domain (Saccharomyces cerevisiae, UniProt Q00955, I69E)
Construct: Residues 2-581 of yeast ACC were sub-cloned into the pET28a vector; made in house; host or cells: E. coli
Sequence (Q00955 2-581 I69E): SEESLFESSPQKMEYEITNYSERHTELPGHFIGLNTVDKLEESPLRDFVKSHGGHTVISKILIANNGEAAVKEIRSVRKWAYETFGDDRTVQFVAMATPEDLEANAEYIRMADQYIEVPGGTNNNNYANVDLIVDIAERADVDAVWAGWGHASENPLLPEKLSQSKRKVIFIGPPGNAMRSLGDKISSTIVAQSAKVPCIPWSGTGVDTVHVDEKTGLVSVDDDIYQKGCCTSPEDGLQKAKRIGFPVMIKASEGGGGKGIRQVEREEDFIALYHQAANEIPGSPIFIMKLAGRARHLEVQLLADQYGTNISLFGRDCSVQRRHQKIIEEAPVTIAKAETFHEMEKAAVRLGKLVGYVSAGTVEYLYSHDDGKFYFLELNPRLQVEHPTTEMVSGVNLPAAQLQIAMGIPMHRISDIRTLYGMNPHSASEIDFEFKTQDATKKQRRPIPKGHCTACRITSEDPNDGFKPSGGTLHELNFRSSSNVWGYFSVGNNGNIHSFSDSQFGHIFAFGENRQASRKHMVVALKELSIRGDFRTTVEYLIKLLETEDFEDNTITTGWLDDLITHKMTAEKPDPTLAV
MEASUREMENT DESCRIPTION: radioactive binding assay, I69E mutant
MEASUREMENT SETUP: up to 60 nM soraphen A, 10 nM protein, read-out: Kd (nM) (radiactive assay)
PROPERTY MEASURED: Kd

Given the molecule CO[C@H]1CCCC[C@@H](c2ccccc2)OC(=O)[C@@H](C)[C@@]2(O)O[C@H]([C@@H](C)[C@H](O)[C@H]2OC)[C@@H](C)/C=C/[C@H]1OC , what is its reported Kd?
> 60 nM

---

TARGET DESC: K73R mutant yeast BC domain (Saccharomyces cerevisiae, UniProt Q00955, K73R)
Construct: Residues 2-581 of yeast ACC were sub-cloned into the pET28a vector; made in house; host or cells: E. coli
Sequence (Q00955 2-581 K73R): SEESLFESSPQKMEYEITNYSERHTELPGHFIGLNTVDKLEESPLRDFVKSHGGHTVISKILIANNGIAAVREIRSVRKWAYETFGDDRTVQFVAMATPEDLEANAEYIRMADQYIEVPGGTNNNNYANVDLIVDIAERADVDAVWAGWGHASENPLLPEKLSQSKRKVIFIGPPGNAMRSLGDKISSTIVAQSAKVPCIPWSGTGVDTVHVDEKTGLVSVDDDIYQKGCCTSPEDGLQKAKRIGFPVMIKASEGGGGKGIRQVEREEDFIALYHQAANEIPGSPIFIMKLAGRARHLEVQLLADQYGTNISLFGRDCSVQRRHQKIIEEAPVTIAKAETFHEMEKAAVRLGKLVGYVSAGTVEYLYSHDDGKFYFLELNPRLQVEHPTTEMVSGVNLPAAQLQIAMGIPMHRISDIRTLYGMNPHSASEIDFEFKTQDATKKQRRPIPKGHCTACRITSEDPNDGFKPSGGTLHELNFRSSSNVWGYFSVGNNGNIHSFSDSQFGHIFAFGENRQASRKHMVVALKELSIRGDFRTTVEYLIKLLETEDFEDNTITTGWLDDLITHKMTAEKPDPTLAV
MEASUREMENT DESCRIPTION: radioactive binding assay, K73R mutant
MEASUREMENT SETUP: up to 60 nM soraphen A, 10 nM protein, read-out: Kd (nM) (radiactive assay)
PROPERTY MEASURED: Kd

Given the molecule CO[C@H]1CCCC[C@@H](c2ccccc2)OC(=O)[C@@H](C)[C@@]2(O)O[C@H]([C@@H](C)[C@H](O)[C@H]2OC)[C@@H](C)/C=C/[C@H]1OC , what is its reported Kd?
> 60 nM

---

TARGET DESC: E477R mutant yeast BC domain (Saccharomyces cerevisiae, UniProt Q00955, E477R)
Construct: Residues 2-581 of yeast ACC were sub-cloned into the pET28a vector; made in house; host or cells: E. coli
Sequence (Q00955 2-581 E477R): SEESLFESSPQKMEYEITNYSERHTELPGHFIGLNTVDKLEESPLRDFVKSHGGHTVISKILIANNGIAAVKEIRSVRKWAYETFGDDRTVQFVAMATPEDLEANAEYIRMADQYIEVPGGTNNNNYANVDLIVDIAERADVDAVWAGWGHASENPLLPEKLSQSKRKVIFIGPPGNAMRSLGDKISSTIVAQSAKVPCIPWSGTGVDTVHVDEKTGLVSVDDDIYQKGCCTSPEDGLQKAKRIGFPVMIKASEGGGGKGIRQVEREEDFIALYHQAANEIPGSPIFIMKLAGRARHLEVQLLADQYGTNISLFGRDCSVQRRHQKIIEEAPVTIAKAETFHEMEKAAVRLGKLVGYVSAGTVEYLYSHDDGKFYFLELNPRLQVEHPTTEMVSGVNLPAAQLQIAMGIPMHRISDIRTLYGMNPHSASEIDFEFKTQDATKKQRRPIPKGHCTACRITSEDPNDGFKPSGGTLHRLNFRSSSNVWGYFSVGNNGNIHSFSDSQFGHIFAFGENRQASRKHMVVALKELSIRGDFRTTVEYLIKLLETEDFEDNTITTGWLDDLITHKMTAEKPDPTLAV
MEASUREMENT DESCRIPTION: radioactive binding assay, E477R mutant
MEASUREMENT SETUP: read-out: Kd (nM) (radiactive assay)
PROPERTY MEASURED: Kd (nM)
All answers are understood in nM, so give the number only.

Can you look up Kd on E477R mutant yeast BC domain (Saccharomyces cerevisiae, UniProt Q00955, E477R) for CO[C@H]1CCCC[C@@H](c2ccccc2)OC(=O)[C@@H](C)[C@@]2(O)O[C@H]([C@@H](C)[C@H](O)[C@H]2OC)[C@@H](C)/C=C/[C@H]1OC ?
24.7
